List of AC50 values.
- Test system: Plasmodium falciparum Dd2 asexual blood stage parasites
- TEST_DESCRIPTION: microbe, parasite or virus in culture
- Parameters: species or system Plasmodium falciparum Dd2 in human erythrocytes; single determination (one 11-point concentration-response curve)
- STATED_CONDITIONS: Plasmodium falciparum, DD2, Erythrocyte, 72 h; read-out: AC50

- COMPOUND: "COC(=O)c1cc(O)cc(OC)c1Oc1cc(C)cc(O)c1C(=O)O"
  TARGET_OR_TEST_SYSTEM: "Plasmodium falciparum Dd2 asexual blood stage parasites"
  UNIT_ABBREV: "µM"
  AC50: 4.22
- COMPOUND: "COc1ccc(NC(=O)c2ccc(-c3nnc4ccc(NC(=O)C5CCC5)cn34)cc2)cc1"
  TARGET_OR_TEST_SYSTEM: "Plasmodium falciparum Dd2 asexual blood stage parasites"
  UNIT_ABBREV: "µM"
  AC50: 4.22
- COMPOUND: "COc1ccc(-c2c[nH]c([C@@H]3COCCN3Cc3ccccc3O)n2)cc1"
  TARGET_OR_TEST_SYSTEM: "Plasmodium falciparum Dd2 asexual blood stage parasites"
  UNIT_ABBREV: "µM"
  AC50: 17.2
- COMPOUND: "CCOC(=O)c1sc(NC(=O)c2nc3ncccn3n2)c(C(=O)OC(C)C)c1C"
  TARGET_OR_TEST_SYSTEM: "Plasmodium falciparum Dd2 asexual blood stage parasites"
  UNIT_ABBREV: "µM"
  AC50: 2.66

---

- Test system: P. berghei-ANKA-GFP-LucCON liver stage parasites in HepG2-A16-CD81EGFP cells
- TEST_DESCRIPTION: P. berghei liver stage Pb-Luc assay, Method 1 (UCSD, 1536-well)
- Assay type: cell-based, Plasmodium berghei
- STATED_CONDITIONS: Method 1; log10 of molar AC50 from Hill fit

- MOLECULE: "COc1ccc(-c2c(C)nn3c(N)c(C#N)cnc23)cc1OC [MLS000718813-01]"
  Log AC50 (M): -5.850
- MOLECULE: "COc1ccc(-n2nc(C)c([C@@H]3C=C[C@@H](NCc4ccc(N(C)C)cc4)C3)c2C)cc1 [NCGC00394616-01]"
  Log AC50 (M): -5.800
- MOLECULE: "COc1ccc(CCN2CCC(Nc3nc4ccccc4n3Cc3ccc(F)cc3)CC2)cc1 [NCGC00016913-08]"
  Log AC50 (M): -5.500
- MOLECULE: "CCC(CC)c1cc([C@H]2CN3CC[C@H]2C[C@@H]3CN[S+](=O)([O-])c2cccs2)nc(-c2ccncc2)n1 [NCGC00396883-01]"
  Log AC50 (M): -6.150
- MOLECULE: "c1ccc(CCNc2ccnc3cc4ccccc4cc23)cc1 [MLS000717866-01]"
  Log AC50 (M): -6.300

---

- TEST_DESCRIPTION: in vitro
- STATED_CONDITIONS: human, hepg2-a16-cd81egfp cells, % viability

- COMPOUND: "CCNc1nc(C#N)nc2c1ncn2-c1cc(F)cc(F)c1"
  viability at 3 µM [%]: 99.9
- COMPOUND: "Cc1nn2c(c1-c1ccccc1-c1ccccc1)N(CCC(C)C)CCC2"
  viability at 3 µM [%]: 15.3
- COMPOUND: "Cc1cc(N2CCC(C)CC2)nc(-n2nc(C)cc2C)n1"
  viability at 3 µM [%]: 98.6
- COMPOUND: "COc1ccc(Cl)cc1NC(=O)c1cc(-c2cc(C)ccc2O)[nH]n1"
  viability at 3 µM [%]: 108
- COMPOUND: "Cc1ccc(NC2=C/C(=N\\S(=O)(=O)c3cccs3)c3ccccc3C2=O)cc1C"
  viability at 3 µM [%]: 81.7

---

- TEST_DESCRIPTION: in vitro
- STATED_CONDITIONS: human, hepg2-a16-cd81egfp cells, % viability
MEASURED_PARAMETER: viability at 3 µM (%)

- COMPOUND: "COc1cccc2sc(N3CCN(C(=O)c4ccc([N+](=O)[O-])o4)CC3)nc12"
  MEASURED_PARAMETER: "viability at 3 µM"
  VALUE_MEASURED: 93.6
- COMPOUND: "O=C(NC1=C(Nc2ccc(Cl)cc2)C(=O)c2ccccc2C1=O)c1ccccc1"
  MEASURED_PARAMETER: "viability at 3 µM"
  VALUE_MEASURED: 97.1
- COMPOUND: "CC1=C[C@@H](CNCc2cccnc2)[C@H](C(C)C)C[C@H]1Cc1nnc(-c2ccc([N+](=O)[O-])cc2)o1"
  MEASURED_PARAMETER: "viability at 3 µM"
  VALUE_MEASURED: 91.7
- COMPOUND: "CCN(CC)CC(O)COc1ccccc1C(=O)CCc1ccccc1 (stereo not drawn)"
  MEASURED_PARAMETER: "viability at 3 µM"
  VALUE_MEASURED: 104
- COMPOUND: "CC(C)(C)Nc1nc(NC(C)(C)C)nc(-n2ccnc2)n1"
  MEASURED_PARAMETER: "viability at 3 µM"
  VALUE_MEASURED: 90.9
- COMPOUND: "c1ccc(-c2cccc(-c3ccccn3)n2)nc1"
  MEASURED_PARAMETER: "viability at 3 µM"
  VALUE_MEASURED: 19.2
- COMPOUND: "CCCCc1cc(=O)oc2cc(C)cc(OCC(=O)Nc3cccnc3)c12"
  MEASURED_PARAMETER: "viability at 3 µM"
  VALUE_MEASURED: 96.3
- COMPOUND: "CC(Oc1ccc(F)cc1)C(=O)Nc1cc(C(F)(F)F)ccc1-n1cncn1 (stereo not drawn)"
  MEASURED_PARAMETER: "viability at 3 µM"
  VALUE_MEASURED: 101
- COMPOUND: "COc1cc2nc(Nc3cccc(F)c3)nc(N)c2cc1OC"
  MEASURED_PARAMETER: "viability at 3 µM"
  VALUE_MEASURED: 101
- COMPOUND: "Cc1ccc(C)c(-n2c(-c3ccc(Br)cc3)csc2=NC(=O)c2ccccc2F)c1"
  MEASURED_PARAMETER: "viability at 3 µM"
  VALUE_MEASURED: 89.1
- COMPOUND: "CCN(CC)CCN1C(=O)c2ccccc2NC1c1ccc(N(C)C)cc1 (stereo not drawn)"
  MEASURED_PARAMETER: "viability at 3 µM"
  VALUE_MEASURED: 95.7
- COMPOUND: "Cc1ccnc2nc(C(=O)Nc3cc(Cl)ccc3N3CCOCC3)nn12"
  MEASURED_PARAMETER: "viability at 3 µM"
  VALUE_MEASURED: 98.5
- COMPOUND: "COc1ccc(-[n+]2c(-c3ccc(Br)cc3)cn3c2CCc2ccccc2-3)cc1.[Br-]"
  MEASURED_PARAMETER: "viability at 3 µM"
  VALUE_MEASURED: 65.4
- COMPOUND: "Cc1cc(C)n(-c2nc(NC(C)(C)C)nc(NC(C)(C)C)n2)n1"
  MEASURED_PARAMETER: "viability at 3 µM"
  VALUE_MEASURED: 106
- COMPOUND: "COc1ccccc1C1CC(c2ccccc2)=NN1C(=O)c1ccccc1 (stereo not drawn)"
  MEASURED_PARAMETER: "viability at 3 µM"
  VALUE_MEASURED: 96.5
- COMPOUND: "Cc1cc(Nc2ccc(C(C)C)cc2)n2ncnc2n1"
  MEASURED_PARAMETER: "viability at 3 µM"
  VALUE_MEASURED: 96.1
- COMPOUND: "CC1CCN(c2ccc(C(=O)NCc3ccco3)cc2[N+](=O)[O-])CC1"
  MEASURED_PARAMETER: "viability at 3 µM"
  VALUE_MEASURED: 91.2
- COMPOUND: "COc1ccc(Nc2cc(C)nc(NCc3ccccc3)n2)cc1"
  MEASURED_PARAMETER: "viability at 3 µM"
  VALUE_MEASURED: 83
- COMPOUND: "COc1ccc2c(c1)C=C([C@@H]1C[C@H]3CN(c4ccccc4)C(=O)[C@]34CCCN14)CO2"
  MEASURED_PARAMETER: "viability at 3 µM"
  VALUE_MEASURED: 95.7
- COMPOUND: "Cc1ccc(/C=N/NC(=O)c2nnn(-c3nonc3N)c2-c2ccc3c(c2)OCO3)s1"
  MEASURED_PARAMETER: "viability at 3 µM"
  VALUE_MEASURED: 90.4
- COMPOUND: "O=C(Nc1ccc(Nc2ccncc2)cc1)c1ccc(Nc2ccnc3ccc([N+](=O)[O-])cc23)cc1"
  MEASURED_PARAMETER: "viability at 3 µM"
  VALUE_MEASURED: 90.3
- COMPOUND: "COc1ccc2ccc(O)c(CN3CC=C(c4ccccc4)CC3)c2c1"
  MEASURED_PARAMETER: "viability at 3 µM"
  VALUE_MEASURED: 97.2
- COMPOUND: "CC(C)N(Cc1ccccc1)C(=O)CN1C(=O)COc2ccc([S+](=O)([O-])N3CCCCCC3)cc21"
  MEASURED_PARAMETER: "viability at 3 µM"
  VALUE_MEASURED: 93.6
- COMPOUND: "Cc1ccc(NC(=O)N(Cc2ccc3c(c2)OCO3)Cc2cc3cc4c(cc3[nH]c2=O)OCCO4)cc1"
  MEASURED_PARAMETER: "viability at 3 µM"
  VALUE_MEASURED: 101
- COMPOUND: "Cl.Oc1ccc(C2NCc3ccccc3-n3cccc32)cc1Cl (stereo not drawn)"
  MEASURED_PARAMETER: "viability at 3 µM"
  VALUE_MEASURED: 94
- COMPOUND: "CN(C)Cc1c(O)ccc2oc(Cc3ccccc3)cc12"
  MEASURED_PARAMETER: "viability at 3 µM"
  VALUE_MEASURED: 89.6
- COMPOUND: "Oc1cccc(Nc2nc(NCC3CCCO3)c3ccccc3n2)c1 (stereo not drawn)"
  MEASURED_PARAMETER: "viability at 3 µM"
  VALUE_MEASURED: 95.5
- COMPOUND: "CCCCOc1ccc(NC2=NC(N)=NC3(CCCCC3)N2)cc1"
  MEASURED_PARAMETER: "viability at 3 µM"
  VALUE_MEASURED: 88.4
- COMPOUND: "Clc1ncnc2scc(-c3ccc(Br)cc3)c12"
  MEASURED_PARAMETER: "viability at 3 µM"
  VALUE_MEASURED: 99.5
- COMPOUND: "COc1cc(C)cc(CN2CCC(Cc3ccccc3)CC2)c1O"
  MEASURED_PARAMETER: "viability at 3 µM"
  VALUE_MEASURED: 87.6
- COMPOUND: "COc1cc2nc(SCc3ccc(F)cc3)n3nc(CCn4c(C)nc5ccccc54)nc3c2cc1OC"
  MEASURED_PARAMETER: "viability at 3 µM"
  VALUE_MEASURED: 107
- COMPOUND: "OCCCNc1cc(-c2ccnc(Nc3cccc(Cl)c3)n2)ccn1"
  MEASURED_PARAMETER: "viability at 3 µM"
  VALUE_MEASURED: 8.46
- COMPOUND: "Cc1cc(O)c(CN2CCN(S(=O)(=O)c3cccs3)CC2)cc1C(C)C"
  MEASURED_PARAMETER: "viability at 3 µM"
  VALUE_MEASURED: 92.3
- COMPOUND: "Oc1c(CN2CCN(c3ccccn3)CC2)cc(Cl)c2cccnc12"
  MEASURED_PARAMETER: "viability at 3 µM"
  VALUE_MEASURED: 77.4
- COMPOUND: "CC(=O)N(C)C1=C(N2CCOCC2)C(=O)c2ccccc2C1=O"
  MEASURED_PARAMETER: "viability at 3 µM"
  VALUE_MEASURED: 96.1
- COMPOUND: "NC1=NC[C@@H](Cc2ccc(O)cc2)N1CCCCC1CCCCC1"
  MEASURED_PARAMETER: "viability at 3 µM"
  VALUE_MEASURED: 97.6
